Tested on: 186277-243-T-J2-PDC multi-cell spheroid viability;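 also: spheroids exposed to compounds for seven days before viability reading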
EXPERIMENT: Anticancer human tumor 186277-243-T-J2-PDC patient-derived colon adenocarcinoma cell line growth inhibition [PI3K]
CONDITION LABEL: curve of first compound; second compound 0.0316 µM
In this section we review reported IC50 values for a set of molecules.

molecule="CC(C)n1nc(-c2ccc3oc(N)nc3c2)c2c(N)ncnc21 + Cc1nc(NC(=O)N2CCCC2C(N)=O)sc1-c1ccnc(C(C)(C)C(F)(F)F)c1" result="0.0531 µM"

Give IC50 for CNC(=O)c1ccc(N2C(=S)N(c3ccc(C#N)c(C(F)(F)F)c3)C(=O)C2(C)C)cc1F + COc1c(OCCCN2CCOCC2)ccc2c3n(c(=NC(=O)c4cnc(N)nc4)nc12)CCN3 tested on 186277-243-T-J2-PDC multi-cell spheroid viability.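 Also: spheroids exposed to compounds for seven days before viability reading.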
> 10 µM

Give IC50 for Cn1ncnc1[C@H]1c2n[nH]c(=O)c3cc(F)cc(c23)N[C@@H]1c1ccc(F)cc1 + Cc1nc(NC(=O)N2CCCC2C(N)=O)sc1-c1ccnc(C(C)(C)C(F)(F)F)c1 tested on 186277-243-T-J2-PDC multi-cell spheroid viability.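 Also: spheroids exposed to compounds for seven days before viability reading.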
> 0.1 µM

Give IC50 for CC1(C)CCC(CN2CCN(c3ccc(C(=O)NS(=O)(=O)c4ccc(NCC5CCOCC5)c([N+](=O)[O-])c4)c(Oc4cnc5[nH]ccc5c4)c3)CC2)=C(c2ccc(Cl)cc2)C1 + CC(Nc1ncnc2nc[nH]c12)c1cc2cccc(Cl)c2c(=O)n1-c1ccccc1 tested on 186277-243-T-J2-PDC multi-cell spheroid viability.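 Also: spheroids exposed to compounds for seven days before viability reading.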
4.86 µM

Give IC50 for CC(Cn1ccc(-c2ccc(C#N)c(Cl)c2)n1)NC(=O)c1cc(C(C)O)[nH]n1 (stereo unspecified) + COc1c(OCCCN2CCOCC2)ccc2c3n(c(=NC(=O)c4cnc(N)nc4)nc12)CCN3 tested on 186277-243-T-J2-PDC multi-cell spheroid viability.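 Also: spheroids exposed to compounds for seven days before viability reading.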
> 10 µM

Give IC50 for Cn1ncnc1[C@H]1c2n[nH]c(=O)c3cc(F)cc(c23)N[C@@H]1c1ccc(F)cc1 + CC(Nc1ncnc2nc[nH]c12)c1cc2cccc(Cl)c2c(=O)n1-c1ccccc1 tested on 186277-243-T-J2-PDC multi-cell spheroid viability.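 Also: spheroids exposed to compounds for seven days before viability reading.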
> 0.1 µM

Give IC50 for C#Cc1c(F)ccc2cc(O)cc(-c3ncc4c(N5CC6CCC(C5)N6)nc(OCC56CCCN5CC(F)C6)nc4c3F)c12 (stereo unspecified) + COc1c(OCCCN2CCOCC2)ccc2c3n(c(=NC(=O)c4cnc(N)nc4)nc12)CCN3 tested on 186277-243-T-J2-PDC multi-cell spheroid viability.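 Also: spheroids exposed to compounds for seven days before viability reading.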
< 0.0316 µM

Give IC50 for Cn1nccc1Nc1nccc(-c2ccn(C(CO)c3ccc(Cl)c(F)c3)c(=O)c2)n1 (stereo unspecified) + CC(Nc1ccc2c(c1)OCCn1cc(N3C(=O)OCC3C(F)F)nc1-2)C(N)=O tested on 186277-243-T-J2-PDC multi-cell spheroid viability.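 Also: spheroids exposed to compounds for seven days before viability reading.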
1.47 µM

Give IC50 for C=CC(=O)N1CCN(c2nc(=O)n(-c3c(C)ccnc3C(C)C)c3nc(-c4c(O)cccc4F)c(F)cc23)C(C)C1 (stereo unspecified) + CC(Nc1ccc2c(c1)OCCn1cc(N3C(=O)OCC3C(F)F)nc1-2)C(N)=O tested on 186277-243-T-J2-PDC multi-cell spheroid viability.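 Also: spheroids exposed to compounds for seven days before viability reading.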
> 10 µM

Give IC50 for Cn1ncnc1[C@H]1c2n[nH]c(=O)c3cc(F)cc(c23)N[C@@H]1c1ccc(F)cc1 + CC(Nc1ccc2c(c1)OCCn1cc(N3C(=O)OCC3C(F)F)nc1-2)C(N)=O tested on 186277-243-T-J2-PDC multi-cell spheroid viability.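 Also: spheroids exposed to compounds for seven days before viability reading.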
> 0.1 µM

Give IC50 for CNC(=O)c1ccc(N2C(=S)N(c3ccc(C#N)c(C(F)(F)F)c3)C(=O)C2(C)C)cc1F + CC(Nc1ncnc2nc[nH]c12)c1cc2cccc(Cl)c2c(=O)n1-c1ccccc1 tested on 186277-243-T-J2-PDC multi-cell spheroid viability.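 Also: spheroids exposed to compounds for seven days before viability reading.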
> 10 µM
